Assay: xn = mol fraction of the nth substance listed, in the solute-free solvent
Details: 318.15 K; x2 = 0.9
Hi there, I'd appreciate the recorded solubility (g/100 g solution) for every entry that follows.
One number for each entry.

Check out these entries, answers already filled in.
compound="S=c1[nH]ncs1 + CCO + O" measurement_label="solubility (g/100 g solution)" quantitative_result=23.9
compound="S=c1[nH]ncs1 + CC(C)=O + O" measurement_label="solubility (g/100 g solution)" quantitative_result=33.7
compound="OCCN(CCO)c1nc(N2CCCCC2)c2nc(N(CCO)CCO)nc(N3CCCCC3)c2n1 + CC(C)O + O" measurement_label="solubility (g/100 g solution)" quantitative_result=15.1
compound="S=c1[nH]ncs1 + CO + O" measurement_label="solubility (g/100 g solution)" quantitative_result=30
compound="OCCN(CCO)c1nc(N2CCCCC2)c2nc(N(CCO)CCO)nc(N3CCCCC3)c2n1 + CCO + O" measurement_label="solubility (g/100 g solution)" quantitative_result=15.1

For each of the compounds below, state solubility (g/100 g solution).
1. OCCN(CCO)c1nc(N2CCCCC2)c2nc(N(CCO)CCO)nc(N3CCCCC3)c2n1 + CO + O
2. S=c1[nH]ncs1 + CCCO + O

Output:
[15.8, 19.6]

* * *

Assay: xn = mol fraction of the nth substance listed, in the solute-free solvent
Details: 318.15 K; x2 = 0.2812
Measurement label: solubility (g/100 g solution)
Numbers only.

Here are 3 compounds together with their reported answers.
compound="Nc1cccc(S(=O)(=O)c2cccc(N)c2)c1 + CCO + O" quantitative_result=1.89
compound="CC(C)OC(=O)C(C)NP(=O)(OCC1OC(n2ccc(=O)[nH]c2=O)C(C)(F)C1O)Oc1ccccc1 (centres undefined) + CCO + O" quantitative_result=33.9
compound="Cc1[nH]c(=O)c(C#N)cc1-c1ccncc1 + CCO + O" quantitative_result=0.00662

Sample COc1cc2c(cc1OC)-c1cc3ccc(OC)c(OC)c3c[n+]1CC2.[Cl-] + CCO + O ; solubility (g/100 g solution) observed: 6.02

* * *

Test: xn = mol fraction of the nth substance listed, in the solute-free solvent
Settings: 323.15 K; x2 = 0.1666
Measurement label: solubility (g/100 g solution)
Answers are plain numbers.

Solved entries (count: 2):
molecule="c1ccc2[nH]c(-c3cscn3)nc2c1 + CC(C)O + O" quantitative_result=0.156
molecule="CN1CCN(C2=Nc3cc(Cl)ccc3Nc3ccccc32)CC1 + CC(C)O + O" quantitative_result=0.642

Below are some molecules; for each one, tell me its solubility (g/100 g solution).
1. c1ccc2[nH]c(-c3cscn3)nc2c1 + CCCO + O
2. Cc1[nH]c(=O)c(C#N)cc1-c1ccncc1 + CC(C)O + O
3. Nc1cccc(S(=O)(=O)c2cccc(N)c2)c1 + CC(C)O + O
4. Nc1nccnc1Cl + CC(C)O + O

Output:
[0.242, 0.0128, 1.59, 0.93]

* * *

Test: xn = mol fraction of the nth substance listed, in the solute-free solvent
Conditions: 308.15 K; x2 = 0.03225
Measurement label: solubility (g/100 g solution)
Numbers only.

Previously resolved entries follow.
compound="Nc1cccc(S(=O)(=O)c2cccc(N)c2)c1 + CC(C)O + O" measurement_label="solubility (g/100 g solution)" quantitative_result=0.248
compound="CN1CCN(C2=Nc3cc(Cl)ccc3Nc3ccccc32)CC1 + CC(C)O + O" measurement_label="solubility (g/100 g solution)" quantitative_result=0.0298
compound="Cc1[nH]c(=O)c(C#N)cc1-c1ccncc1 + CC(C)O + O" measurement_label="solubility (g/100 g solution)" quantitative_result=0.00261
compound="Nc1nccnc1Cl + CC(C)O + O" measurement_label="solubility (g/100 g solution)" quantitative_result=0.154
compound="c1ccc2[nH]c(-c3cscn3)nc2c1 + CC(C)O + O" measurement_label="solubility (g/100 g solution)" quantitative_result=0.00539

Form field solubility (g/100 g solution), entry c1ccc2[nH]c(-c3cscn3)nc2c1 + CCCO + O : 0.00974

* * *

Assay: xn = mol fraction of the nth substance listed, in the solute-free solvent
Conditions: 293.15 K; x2 = 0.08908
Measurement label: solubility (g/100 g solution)
Numbers only.

Example compounds with recorded solubility (g/100 g solution):
compound="COc1cc2c(cc1OC)-c1cc3ccc(OC)c(OC)c3c[n+]1CC2.[Cl-] + CCO + O" measurement_label="solubility (g/100 g solution)" quantitative_result=1.93
compound="Nc1cccc(S(=O)(=O)c2cccc(N)c2)c1 + CCO + O" measurement_label="solubility (g/100 g solution)" quantitative_result=0.226
compound="CC(C)OC(=O)C(C)NP(=O)(OCC1OC(n2ccc(=O)[nH]c2=O)C(C)(F)C1O)Oc1ccccc1 (centres undefined) + CCO + O" measurement_label="solubility (g/100 g solution)" quantitative_result=3.46

Could you now look at the following compound, please?
// solubility (g/100 g solution) value for Cc1[nH]c(=O)c(C#N)cc1-c1ccncc1 + CCO + O : 0.00144

* * *

Test: xn = mol fraction of the nth substance listed, in the solute-free solvent
Conditions: 308.15 K; x2 = 0.1666
Hi, to clarify the labels: criterion met covers solubility (g/100 g solution) from 0.6 upward, criterion not met covers anything below 0.6.

compound="CN1CCN(C2=Nc3cc(Cl)ccc3Nc3ccccc32)CC1 + CC(C)O + O" class_assignment="criterion not met"
compound="Cc1[nH]c(=O)c(C#N)cc1-c1ccncc1 + CC(C)O + O" class_assignment="criterion not met"
compound="Nc1cccc(S(=O)(=O)c2cccc(N)c2)c1 + CC(C)O + O" class_assignment="criterion met"
compound="c1ccc2[nH]c(-c3cscn3)nc2c1 + CC(C)O + O" class_assignment="criterion not met"
compound="Nc1nccnc1Cl + CC(C)O + O" class_assignment="criterion met"

Input: Record c1ccc2[nH]c(-c3cscn3)nc2c1 + CCCO + O ; criterion: solubility (g/100 g solution) no lower than 0.6. Met?
Output: criterion not met

* * *

Experiment: xn = mol fraction of the nth substance listed, in the solute-free solvent
Details: 283.15 K; x2 = 0.7788
Measurement label: solubility (g/100 g solution)
Numbers only.

Illustrative cases are given below, each with its answer.
compound="Nc1cccc(S(=O)(=O)c2cccc(N)c2)c1 + CCO + O" measurement_label="solubility (g/100 g solution)" quantitative_result=1.1
compound="CC(C)OC(=O)C(C)NP(=O)(OCC1OC(n2ccc(=O)[nH]c2=O)C(C)(F)C1O)Oc1ccccc1 (centres undefined) + CCO + O" measurement_label="solubility (g/100 g solution)" quantitative_result=20.9
compound="COc1cc2c(cc1OC)-c1cc3ccc(OC)c(OC)c3c[n+]1CC2.[Cl-] + CCO + O" measurement_label="solubility (g/100 g solution)" quantitative_result=2.11

# solubility (g/100 g solution) of Cc1[nH]c(=O)c(C#N)cc1-c1ccncc1 + CCO + O = 0.00503

* * *

Experiment: xn = mol fraction of the nth substance listed, in the solute-free solvent
Details: 303.15 K; x2 = 0.1139
Measurement label: solubility (g/100 g solution)
Give bare numbers.

Here's what some known entries look like.
compound="Nc1cccc(S(=O)(=O)c2cccc(N)c2)c1 + CC(C)O + O" quantitative_result=0.488
compound="CN1CCN(C2=Nc3cc(Cl)ccc3Nc3ccccc32)CC1 + CC(C)O + O" quantitative_result=0.171
compound="Cc1[nH]c(=O)c(C#N)cc1-c1ccncc1 + CC(C)O + O" quantitative_result=0.00565
compound="c1ccc2[nH]c(-c3cscn3)nc2c1 + CC(C)O + O" quantitative_result=0.0453
compound="Nc1nccnc1Cl + CC(C)O + O" quantitative_result=0.38

We now examine a further compound.
The reported solubility (g/100 g solution) of the compound c1ccc2[nH]c(-c3cscn3)nc2c1 + CCCO + O was 0.0703

* * *

For each record, write down the corresponding solubility (g/100 g solution).
Experiment: xn = mol fraction of the nth substance listed, in the solute-free solvent
Conditions: 313.15 K; x2 = 0.3
Answers are plain numbers.

Example entries and their recorded answers appear below.
compound="OCCN(CCO)c1nc(N2CCCCC2)c2nc(N(CCO)CCO)nc(N3CCCCC3)c2n1 + CO + O" measurement_label="solubility (g/100 g solution)" quantitative_result=0.281
compound="CC(N)C(=O)O (stereo not given) + O + CO" measurement_label="solubility (g/100 g solution)" quantitative_result=0.492
compound="Cc1ncc(C[n+]2csc(CCO)c2C)c(N)n1.O=[N+]([O-])[O-] + O + CO" measurement_label="solubility (g/100 g solution)" quantitative_result=1.81

Go through the list and state solubility (g/100 g solution) for each entry.
1. OCCN(CCO)c1nc(N2CCCCC2)c2nc(N(CCO)CCO)nc(N3CCCCC3)c2n1 + CCO + O
2. CCCCCOC(=O)Nc1nc(=O)n(C2OC(C)C(O)C2O)cc1F (stereo not given) + CCOC(C)=O + CCCCCCC

Output:
[5.33, 0.136]
